Target: 3',5'-cyclic-AMP phosphodiesterase 4B (Homo sapiens)
Assay: Inhibition of PDE4B1 (unknown origin)
pIC50: −log10 of the molar value.
QUANTITY NAME: pIC50

CCNc1cc(C(=O)C2CCCC2)ccc1OC; 6.96

* * *

Assay: AUC (0 to t) in Sprague-Dawley rat at 5 mg/kg, iv by LC-MS/MS analysis
Type: ADME, organism-based
Conditions: in vivo
QUANTITY NAME: AUC(0-t) (ng·h/mL)

COc1ccc(C(=O)Cn2ccnc2)c2cc(C3CC3)oc12; 5170

* * *

Biological target: 3',5'-cyclic-AMP phosphodiesterase 4B (Homo sapiens, UniProt Q07343)
Sequence (Q07343 whole entry, the tested form may be a part): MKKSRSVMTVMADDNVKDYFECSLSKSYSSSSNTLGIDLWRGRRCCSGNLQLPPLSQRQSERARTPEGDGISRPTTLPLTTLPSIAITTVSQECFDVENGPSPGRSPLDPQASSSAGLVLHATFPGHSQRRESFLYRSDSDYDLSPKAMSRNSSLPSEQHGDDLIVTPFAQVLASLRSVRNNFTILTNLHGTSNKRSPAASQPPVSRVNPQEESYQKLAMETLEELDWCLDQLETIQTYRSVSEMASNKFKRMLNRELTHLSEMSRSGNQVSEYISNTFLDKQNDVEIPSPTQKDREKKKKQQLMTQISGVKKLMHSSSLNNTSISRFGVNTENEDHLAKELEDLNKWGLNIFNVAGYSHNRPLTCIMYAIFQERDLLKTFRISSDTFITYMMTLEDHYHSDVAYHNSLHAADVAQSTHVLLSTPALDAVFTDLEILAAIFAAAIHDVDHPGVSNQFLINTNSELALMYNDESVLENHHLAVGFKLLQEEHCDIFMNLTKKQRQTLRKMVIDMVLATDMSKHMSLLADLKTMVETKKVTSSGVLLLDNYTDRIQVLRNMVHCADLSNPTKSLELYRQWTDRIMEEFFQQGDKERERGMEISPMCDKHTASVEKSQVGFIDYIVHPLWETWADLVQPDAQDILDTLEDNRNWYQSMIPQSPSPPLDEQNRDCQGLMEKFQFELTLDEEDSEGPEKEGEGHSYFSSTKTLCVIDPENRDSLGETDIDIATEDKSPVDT
Assay: Inhibition of recombinant human N-terminal GST-tagged PDE4B1 (1 to 736 residues) expressed in Sf9 insect cells using FAM-cyclic-3',5'-AMP as substrate measured after 1 hr by fluorescence polarization assay
pIC50: −log10 of the molar value.
QUANTITY NAME: pIC50

COc1ccc(C(=O)Cn2ccnc2)c2cc(C3CC3)oc12; 8.00
CC(C)NC(=O)c1ccc(OC(F)F)c(OCC2CC2)c1; 7.51

* * *

Assay: Cmax in Sprague-Dawley rat at 5 mg/kg, iv by LC-MS/MS analysis
Format: ADME, organism-based
Conditions: in vivo
QUANTITY NAME: Cmax (ng/mL)

COc1ccc(C(=O)Cn2ccnc2)c2cc(C3CC3)oc12; 1740

* * *

Experiment: Volume of distribution in Sprague-Dawley rat at 5 mg/kg, iv by LC-MS/MS analysis
Assay type: ADME, organism-based
Settings: in vivo
QUANTITY NAME: Vd (L/kg)

COc1ccc(C(=O)Cn2ccnc2)c2cc(C3CC3)oc12; 1.76

* * *

Target: 3',5'-cyclic-AMP phosphodiesterase 4D (Homo sapiens)
Sequence (Q08499 whole entry, the tested form may be a part): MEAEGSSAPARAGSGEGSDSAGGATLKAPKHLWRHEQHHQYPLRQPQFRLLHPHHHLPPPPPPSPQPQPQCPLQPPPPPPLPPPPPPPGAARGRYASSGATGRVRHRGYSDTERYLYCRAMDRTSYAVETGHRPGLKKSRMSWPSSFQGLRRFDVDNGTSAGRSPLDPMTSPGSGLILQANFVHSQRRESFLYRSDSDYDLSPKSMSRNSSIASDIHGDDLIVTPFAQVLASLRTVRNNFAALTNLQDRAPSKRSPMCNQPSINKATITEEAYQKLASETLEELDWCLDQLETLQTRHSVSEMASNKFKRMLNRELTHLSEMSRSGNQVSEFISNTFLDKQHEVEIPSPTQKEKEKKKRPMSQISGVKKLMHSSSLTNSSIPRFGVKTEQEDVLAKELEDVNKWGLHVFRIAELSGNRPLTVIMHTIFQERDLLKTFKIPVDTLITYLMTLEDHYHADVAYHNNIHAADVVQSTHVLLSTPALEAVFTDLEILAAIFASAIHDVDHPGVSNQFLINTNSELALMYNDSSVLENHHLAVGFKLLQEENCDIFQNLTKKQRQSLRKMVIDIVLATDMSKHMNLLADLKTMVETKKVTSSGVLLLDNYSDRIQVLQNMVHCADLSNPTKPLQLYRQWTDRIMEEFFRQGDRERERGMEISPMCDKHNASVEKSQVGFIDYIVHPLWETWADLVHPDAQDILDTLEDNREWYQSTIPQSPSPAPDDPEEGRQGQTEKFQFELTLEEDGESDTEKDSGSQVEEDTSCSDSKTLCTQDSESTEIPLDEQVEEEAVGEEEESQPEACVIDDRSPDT
Test: Inhibition of human N-terminal GST-tagged PDE4D7 (2 to 748 residues) expressed in baculovirus infected Sf9 insect cells using FAM-cyclic-3',5'-AMP as substrate measured after 1 hr by fluorescence polarization assay
QUANTITY NAME: IC50 (nM)

CC(C)NC(=O)c1ccc(OC(F)F)c(OCC2CC2)c1; 47

* * *

Experiment: Oral bioavailability in mouse at 5 mg/kg by LC-MS/MS analysis
Type: ADME, organism-based
Conditions: in vivo
QUANTITY NAME: bioavailability

CC(C)NC(=O)c1ccc(OC(F)F)c(OCC2CC2)c1; < 5%

Entry source: ChEMBL document CHEMBL5579823
